# System: Priestia megaterium
# method description: Antibacterial activity against Bacillus megaterium ATCC 12872 assessed as diameter of growth inhibition zone at 20 mg/ml after 24 hr by disk diffusion method
# Assay type: functional
# condition context: ATCC 12872, 24 h, read-out: DIZ
result type: zone of inhibition at 20000 µg/mL (mm)
Write down the numeric answer in mm and omit the unit.

Requested read-out zone of inhibition at 20000 µg/mL, target or system Priestia megaterium, entry Cc1ccc(C2C(C#N)=C(N)OC3=C2C(=O)CC(C)(C)C3)s1 (configuration not stated) 10

Requested read-out zone of inhibition at 20000 µg/mL, target or system Priestia megaterium, entry Cc1ccc(C2C(C#N)=C(N)OC3=C2C(=O)CC(C)(C)C3)o1 (configuration not stated) 12

Requested read-out zone of inhibition at 20000 µg/mL, target or system Priestia megaterium, entry Cc1ccsc1C1C(C#N)=C(N)OC2=C1C(=O)CC(C)(C)C2 (configuration not stated) 12

Requested read-out zone of inhibition at 20000 µg/mL, target or system Priestia megaterium, entry Cc1ccc(C2C(C#N)=C(N)Oc3[nH]c(=O)[nH]c(=O)c32)o1 (configuration not stated) 14

Requested read-out zone of inhibition at 20000 µg/mL, target or system Priestia megaterium, entry Cc1ccsc1C1C(C#N)=C(N)Oc2[nH]c(=O)[nH]c(=O)c21 (configuration not stated) 10

Requested read-out zone of inhibition at 20000 µg/mL, target or system Priestia megaterium, entry CC1(C)CC(=O)C2=C(C1)OC(N)=C(C#N)C2c1cccs1 (configuration not stated) 10

Requested read-out zone of inhibition at 20000 µg/mL, target or system Priestia megaterium, entry N#CC1=C(N)Oc2[nH]c(=O)[nH]c(=O)c2C1c1cccs1 (configuration not stated) 12

Requested read-out zone of inhibition at 20000 µg/mL, target or system Priestia megaterium, entry CC1(C)CC(=O)C2=C(C1)OC(N)=C(C#N)C2c1ccco1 (configuration not stated) 12

Requested read-out zone of inhibition at 20000 µg/mL, target or system Priestia megaterium, entry CC1(C)CC(=O)C2=C(C1)OC(N)=C(C#N)C2c1ccc[nH]1 (configuration not stated) 12

Requested read-out zone of inhibition at 20000 µg/mL, target or system Priestia megaterium, entry N#CC1=C(N)Oc2[nH]c(=O)[nH]c(=O)c2C1c1ccco1 (configuration not stated) 14

Requested read-out zone of inhibition at 20000 µg/mL, target or system Priestia megaterium, entry Cc1ccc(C2C(C#N)=C(N)Oc3[nH]c(=O)[nH]c(=O)c32)s1 (configuration not stated) 10

Requested read-out zone of inhibition at 20000 µg/mL, target or system Priestia megaterium, entry N#CC1=C(N)Oc2[nH]c(=O)[nH]c(=O)c2C1c1ccc[nH]1 (configuration not stated) 12

---

# Test system: Klebsiella pneumoniae
# method description: Antibacterial activity against Klebsiella pneumoniae ATCC 15380 assessed as diameter of growth inhibition zone at 20 mg/ml after 24 hr by disk diffusion method
# Format: functional
# condition context: ATCC 15380, 24 h, read-out: DIZ
Assign zone of inhibition at 20000 µg/mL to each entry below.
Write down the numeric answer in mm and omit the unit.

Requested field: zone of inhibition at 20000 µg/mL. Item: N#CC1=C(N)Oc2[nH]c(=O)[nH]c(=O)c2C1c1cccs1 (stereo unspecified) 20

Requested field: zone of inhibition at 20000 µg/mL. Item: Cc1ccc(C2C(C#N)=C(N)Oc3[nH]c(=O)[nH]c(=O)c32)s1 (stereo unspecified) 22

Requested field: zone of inhibition at 20000 µg/mL. Item: N#CC1=C(N)Oc2[nH]c(=O)[nH]c(=O)c2C1c1ccc[nH]1 (stereo unspecified) 20

Requested field: zone of inhibition at 20000 µg/mL. Item: CC1(C)CC(=O)C2=C(C1)OC(N)=C(C#N)C2c1ccco1 (stereo unspecified) 15

Requested field: zone of inhibition at 20000 µg/mL. Item: Cc1ccc(C2C(C#N)=C(N)OC3=C2C(=O)CC(C)(C)C3)s1 (stereo unspecified) 21

Requested field: zone of inhibition at 20000 µg/mL. Item: Cc1ccsc1C1C(C#N)=C(N)OC2=C1C(=O)CC(C)(C)C2 (stereo unspecified) 20

---

# System: Klebsiella pneumoniae
# method description: Antibacterial activity against Klebsiella pneumoniae ATCC 15380 assessed as diameter of growth inhibition zone at 20 mg/ml after 24 hr by disk diffusion method
# Format: functional
# condition context: ATCC 15380, 24 h, read-out: DIZ
result type: zone of inhibition at 20000 µg/mL (mm)
Write down the numeric answer in mm and omit the unit.

Requested field: zone of inhibition at 20000 µg/mL. Item: Cc1ccsc1C1C(C#N)=C(N)Oc2[nH]c(=O)[nH]c(=O)c21 (stereo unspecified) 22

Requested field: zone of inhibition at 20000 µg/mL. Item: N#CC1=C(N)Oc2[nH]c(=O)[nH]c(=O)c2C1c1ccco1 (stereo unspecified) 16

Requested field: zone of inhibition at 20000 µg/mL. Item: CC1(C)CC(=O)C2=C(C1)OC(N)=C(C#N)C2c1cccs1 (stereo unspecified) 19

Requested field: zone of inhibition at 20000 µg/mL. Item: Cc1ccc(C2C(C#N)=C(N)OC3=C2C(=O)CC(C)(C)C3)o1 (stereo unspecified) 15

Requested field: zone of inhibition at 20000 µg/mL. Item: CC1(C)CC(=O)C2=C(C1)OC(N)=C(C#N)C2c1ccc[nH]1 (stereo unspecified) 19

Requested field: zone of inhibition at 20000 µg/mL. Item: Cc1ccc(C2C(C#N)=C(N)Oc3[nH]c(=O)[nH]c(=O)c32)o1 (stereo unspecified) 17

---

# Tested on: Salmonella typhi
# method description: Antibacterial activity against Salmonella enterica subsp. enterica serovar Typhi ATCC 19430 assessed as growth inhibition after 24 hr by disk diffusion method
# Type: functional
Assign MIC to each entry below.
Write down the numeric answer in µg and omit the unit.

Requested read-out MIC, target or system Salmonella typhi, entry N#CC1=C(N)Oc2[nH]c(=O)[nH]c(=O)c2C1c1cccs1 (configuration not stated) 10

Requested read-out MIC, target or system Salmonella typhi, entry CC1(C)CC(=O)C2=C(C1)OC(N)=C(C#N)C2c1ccc[nH]1 (configuration not stated) 10

Requested read-out MIC, target or system Salmonella typhi, entry CC1(C)CC(=O)C2=C(C1)OC(N)=C(C#N)C2c1cccs1 (configuration not stated) 10

Requested read-out MIC, target or system Salmonella typhi, entry Cc1ccsc1C1C(C#N)=C(N)Oc2[nH]c(=O)[nH]c(=O)c21 (configuration not stated) 10

Requested read-out MIC, target or system Salmonella typhi, entry Cc1ccc(C2C(C#N)=C(N)OC3=C2C(=O)CC(C)(C)C3)s1 (configuration not stated) 10

Requested read-out MIC, target or system Salmonella typhi, entry Cc1ccc(C2C(C#N)=C(N)Oc3[nH]c(=O)[nH]c(=O)c32)o1 (configuration not stated) 10

Requested read-out MIC, target or system Salmonella typhi, entry N#CC1=C(N)Oc2[nH]c(=O)[nH]c(=O)c2C1c1ccco1 (configuration not stated) 10

Requested read-out MIC, target or system Salmonella typhi, entry CC1(C)CC(=O)C2=C(C1)OC(N)=C(C#N)C2c1ccco1 (configuration not stated) 10

Requested read-out MIC, target or system Salmonella typhi, entry Cc1ccc(C2C(C#N)=C(N)Oc3[nH]c(=O)[nH]c(=O)c32)s1 (configuration not stated) 10

Requested read-out MIC, target or system Salmonella typhi, entry Cc1ccc(C2C(C#N)=C(N)OC3=C2C(=O)CC(C)(C)C3)o1 (configuration not stated) 10

Requested read-out MIC, target or system Salmonella typhi, entry Cc1ccsc1C1C(C#N)=C(N)OC2=C1C(=O)CC(C)(C)C2 (configuration not stated) 10

Requested read-out MIC, target or system Salmonella typhi, entry N#CC1=C(N)Oc2[nH]c(=O)[nH]c(=O)c2C1c1ccc[nH]1 (configuration not stated) 10

---

# Tested on: Escherichia coli
# method description: Antibacterial activity against Escherichia coli ATCC 25922 assessed as diameter of growth inhibition zone at 20 mg/ml after 24 hr by disk diffusion method
# Type: functional
# condition context: ATCC 25922, 24 h, read-out: DIZ
Param threshold (20 mm) applies to zone of inhibition at 20000 µg/mL; output Met when value >= threshold, Not met when value < threshold.

Check if zone of inhibition at 20000 µg/mL >= 20 mm (inclusive). Item: Cc1ccc(C2C(C#N)=C(N)Oc3[nH]c(=O)[nH]c(=O)c32)s1 (configuration not stated) Not met

Check if zone of inhibition at 20000 µg/mL >= 20 mm (inclusive). Item: Cc1ccc(C2C(C#N)=C(N)OC3=C2C(=O)CC(C)(C)C3)o1 (configuration not stated) Not met

Check if zone of inhibition at 20000 µg/mL >= 20 mm (inclusive). Item: Cc1ccc(C2C(C#N)=C(N)Oc3[nH]c(=O)[nH]c(=O)c32)o1 (configuration not stated) Not met

Check if zone of inhibition at 20000 µg/mL >= 20 mm (inclusive). Item: N#CC1=C(N)Oc2[nH]c(=O)[nH]c(=O)c2C1c1ccc[nH]1 (configuration not stated) Not met

Check if zone of inhibition at 20000 µg/mL >= 20 mm (inclusive). Item: N#CC1=C(N)Oc2[nH]c(=O)[nH]c(=O)c2C1c1cccs1 (configuration not stated) Not met

Check if zone of inhibition at 20000 µg/mL >= 20 mm (inclusive). Item: Cc1ccsc1C1C(C#N)=C(N)OC2=C1C(=O)CC(C)(C)C2 (configuration not stated) Met

Check if zone of inhibition at 20000 µg/mL >= 20 mm (inclusive). Item: Cc1ccsc1C1C(C#N)=C(N)Oc2[nH]c(=O)[nH]c(=O)c21 (configuration not stated) Not met

Check if zone of inhibition at 20000 µg/mL >= 20 mm (inclusive). Item: CC1(C)CC(=O)C2=C(C1)OC(N)=C(C#N)C2c1ccco1 (configuration not stated) Not met

Check if zone of inhibition at 20000 µg/mL >= 20 mm (inclusive). Item: Cc1ccc(C2C(C#N)=C(N)OC3=C2C(=O)CC(C)(C)C3)s1 (configuration not stated) Met

Check if zone of inhibition at 20000 µg/mL >= 20 mm (inclusive). Item: N#CC1=C(N)Oc2[nH]c(=O)[nH]c(=O)c2C1c1ccco1 (configuration not stated) Not met
